- System: HEK-293T
- protocol-details: Multiplex assay against HEK293T
- Type: toxicity, cell-based
- applied-conditions: human, 12 h, 10 µM, compound concentration 10 uM, replicate 2
Reported Population Membrane Permeable-Phenotype (%) values follow for various compounds

Please review the following examples before continuing.
CN1CCC(C(=O)c2cccc(NC(=O)c3c(F)cc(F)cc3F)n2)CC1	0%
COc1cc2nc(N3CCN(C(=O)COc4c(OC)cccc4C(C)C)CC3)nc(N)c2cc1OC.Cl.Cl	3%
Cl.Cl.OCCOCCN1CCN(C(c2ccccc2)c2ccc(Cl)cc2)CC1 (configuration not stated) [HYDROXYZINE HYDROCHLORIDE]	1%

Requested field: Population Membrane Permeable-Phenotype (%). Item: CN1CCN2c3ccccc3Cc3ccccc3C2C1.Cl (configuration not stated) [MIANSERIN HYDROCHLORIDE] 0%

Requested field: Population Membrane Permeable-Phenotype (%). Item: OCCCNc1cc(-c2ccnc(Nc3cccc(Cl)c3)n2)ccn1 10%

Requested field: Population Membrane Permeable-Phenotype (%). Item: COc1cc(C(=O)N2CC[C@@H](O)[C@@H](N)C2)cc2nc(-c3cc4ccccc4n3CC3CC3)n(C)c12.Cl 2%

Requested field: Population Membrane Permeable-Phenotype (%). Item: CCCCC[C@H](O)/C=C/[C@H]1[C@H](O)CC(=O)[C@@H]1CCCCCCC(=O)O 0%

* * *

- System: Fibroblast
- protocol-details: Multiplex assay against human fibroblast
- Format: toxicity, cell-based
- applied-conditions: 24 h, 1 µM, compound concentration 1 uM, replicate 2
parameter: Total Cell Count
API note: the answer field is a bare number with no unit suffix.

Cc1sc2c(c1C)C(c1ccc(Cl)cc1)=N[C@H](CC(=O)OC(C)(C)C)c1nnc(C)n1-2	149
Cc1cc(O)c(-c2ccc([C@@H](C)CN(C)C)cc2)c2c1[nH]c(=O)c1sccc12	111

Requested field: Total Cell Count. Item: COC(c1ccccc1)(c1ccccc1)[C@H](Oc1nc(C)cc(C)n1)C(=O)O 158

Requested field: Total Cell Count. Item: CN(C)C/C=C/C(=O)Nc1ccc(C(=O)N2CCCC(Nc3ncc(Cl)c(-c4c[nH]c5ccccc45)n3)C2)cc1 (stereo not drawn) 181

Requested field: Total Cell Count. Item: O=C(Nc1cc(-c2ccccc2)nn1-c1ccccc1F)c1ccc([N+](=O)[O-])cc1 156

Requested field: Total Cell Count. Item: COc1cc2nc(N3CCN(C(=O)c4ccco4)CC3)nc(N)c2cc1OC.Cl [PRAZOSIN HYDROCHLORIDE] 185

Requested field: Total Cell Count. Item: COc1ccc2c(c1OCc1ccccc1)C[C@@H](C(=O)O)N(C(=O)C(c1ccccc1)c1ccccc1)C2 146

Requested field: Total Cell Count. Item: COc1ccc2[nH]c(I)c(CCNC(C)=O)c2c1 176

* * *

- Tested on: Fibroblast
- protocol-details: Multiplex assay against human fibroblast
- Format: toxicity, cell-based
- applied-conditions: 24 h, 10 µM, compound concentration 10 uM, replicate 2
Non-standard residues stand in square brackets, D forms with d. Residues, ends and D or L forms follow the SMILES beside them.
Answer False if Population Pyknosed Nuclei (%) is under 20%, and True if it is 20% or more.

Consider the following illustrative entries.
COc1cc(Nc2ncc3c(n2)-c2ccc(Cl)cc2C(c2c(F)cccc2OC)=NC3)ccc1C(=O)O [ALISERTIB]	False
CC(C)C[C@@H]1NC(=O)[C@@H](C(C)C)NC(=O)[C@@H]2CCCN2C(=O)[C@@H](CC(=O)O)NC(=O)[C@@H](Cc2c[nH]c3ccccc23)NC1=O [BQ-123] (cyclo(L[dW][dD]P[dV]))	True
Cc1nn(C)c2nc(NNC(=O)Nc3cc(Cl)nc(Cl)c3)cc(C(C)C)c12	False
COCCCN1CCC(NC(=O)c2cc(Cl)c(N)c3c2OCC3)CC1 [PRUCALOPRIDE]	False
CN(C)C(=O)Cn1cc(-c2ccc(-c3nnc4ccccn34)cc2)cn1	True

I'd appreciate it if you could say whether COc1c(Nc2ccc(S(C)(=O)=O)nc2C)ncnc1OC1CCN(C(=O)OC(C)C)CC1 [ADP-597] has Population Pyknosed Nuclei (%) at least equal to 20%. False

I'd appreciate it if you could say whether Cc1cc(=O)n(C)c2cc(N3C(=O)CC[C@H](NS(=O)(=O)CC(C)C)[C@H]3c3ccc(Cl)cc3)ccc12 has Population Pyknosed Nuclei (%) at least equal to 20%. True

I'd appreciate it if you could say whether COc1cc2nc(N3CCN(C(=O)c4ccco4)CC3)nc(N)c2cc1OC.Cl [PRAZOSIN HYDROCHLORIDE] has Population Pyknosed Nuclei (%) at least equal to 20%. False

* * *

- Test system: Fibroblast
- protocol-details: Multiplex assay against human fibroblast
- Format: toxicity, cell-based
- applied-conditions: 12 h, 10 µM, compound concentration 10 uM, replicate 1
parameter: Total Cell Count
API note: the answer field is a bare number with no unit suffix.

Cc1cc(=O)n(C)c2cc(N3C(=O)CC[C@H](NS(=O)(=O)CC(C)C)[C@H]3c3ccc(Cl)cc3)ccc12	149
CCC(=O)OCC(=O)[C@@]1(OC(=O)CC)[C@@H](C)C[C@H]2[C@@H]3CCC4=CC(=O)C=C[C@]4(C)[C@@]3(Cl)[C@@H](O)C[C@@]21C [BECLOMETHASONE DIPROPIONATE]	157
CN(C)C(=O)Cn1cc(-c2ccc(-c3nnc4ccccn34)cc2)cn1	140

# context switch: different molecule, same Total Cell Count
Requested field: Total Cell Count. Item: COc1ccc2[nH]c(I)c(CCNC(C)=O)c2c1 [IODOMELATONIN] 148

* * *

- Test system: HEK-293T
- protocol-details: Multiplex assay against HEK293T
- Format: toxicity, cell-based
- applied-conditions: human, 12 h, 1 µM, compound concentration 1 uM, replicate 1
Non-standard residues stand in square brackets, D forms with d. Residues, ends and D or L forms follow the SMILES beside them.
Reported Population Normal (%) values follow for various molecules
Use % as the unit, but write only the number.

Please review the following examples before continuing.
CC(F)(F)CN1CCOc2c(nn(-c3ccccc3Cl)c2-c2ccc(Cl)cc2)C1=O	93
CCc1nn2c(C)cc(C)nc2c1Cc1ccc(-c2nnc(C3CCNCC3)o2)cc1	92

Requested field: Population Normal (%). Item: CC(C)C[C@@H]1NC(=O)[C@@H](C(C)C)NC(=O)[C@@H]2CCCN2C(=O)[C@@H](CC(=O)O)NC(=O)[C@@H](Cc2c[nH]c3ccccc23)NC1=O [BQ-123] (cyclo(L[dW][dD]P[dV])) 95

Requested field: Population Normal (%). Item: Nc1nc(-c2ccco2)c2cnn(Cc3ccccc3F)c2n1 90

Requested field: Population Normal (%). Item: CC(C)(O)C(=O)N1CCN(c2ccc(C(F)(F)F)c(C3=C(c4c[nH]c5ccccc45)C(=O)NC3=O)c2)CC1 91

Requested field: Population Normal (%). Item: Cc1nn(C)c2nc(NNC(=O)Nc3cc(Cl)nc(Cl)c3)cc(C(C)C)c12 94

Requested field: Population Normal (%). Item: CN1C[C@H](C(=O)N[C@]2(C)O[C@@]3(O)[C@@H]4CCCN4C(=O)[C@H](Cc4ccccc4)N3C2=O)C[C@@H]2c3cccc4[nH]cc(c34)C[C@H]21.CS(=O)(=O)O [DIHYDROERGOTAMINE MESYLATE] 94

Requested field: Population Normal (%). Item: CC(C)C[C@H](CO)Nc1nc(S[C@@H](C)c2ccccc2)nc2nc(N)sc12 95

Requested field: Population Normal (%). Item: COc1c(Nc2ccc(S(C)(=O)=O)nc2C)ncnc1OC1CCN(C(=O)OC(C)C)CC1 93

Requested field: Population Normal (%). Item: COCCn1c(C)c(C)s/c1=N\C(=O)C1C(C)(C)C1(C)C 93

* * *

- Test system: Fibroblast
- protocol-details: Multiplex assay against human fibroblast
- Format: toxicity, cell-based
- applied-conditions: 48 h, 1 µM, compound concentration 1 uM, replicate 1
parameter: Population Apoptotic (%)
Use % as the unit, but write only the number.

Please review the following examples before continuing.
Cc1sc2c(c1C)C(c1ccc(Cl)cc1)=N[C@H](CC(=O)OC(C)(C)C)c1nnc(C)n1-2	63
COc1cc2nc(N3CCN(C(=O)c4ccco4)CC3)nc(N)c2cc1OC.Cl [PRAZOSIN HYDROCHLORIDE]	52
COc1cc(Nc2ncc3c(n2)-c2ccc(Cl)cc2C(c2c(F)cccc2OC)=NC3)ccc1C(=O)O	57

Requested field: Population Apoptotic (%). Item: COCCCN1CCC(NC(=O)c2cc(Cl)c(N)c3c2OCC3)CC1 [PRUCALOPRIDE] 50

* * *

- System: Fibroblast
- protocol-details: Multiplex assay against human fibroblast
- Assay type: toxicity, cell-based
- applied-conditions: 24 h, 1 µM, compound concentration 1 uM, replicate 2
parameter: Population Hoechst High Intensity Objects (%)
Use % as the unit, but write only the number.

Cc1nn(C)c2nc(NNC(=O)Nc3cc(Cl)nc(Cl)c3)cc(C(C)C)c12	2
O=C(O)CCC/C=C\CC1C(O)CC(O)C1/C=C/C(O)COc1cccc(Cl)c1 (centres undefined)	3
Cn1cc(C(=O)OCC2CCN(CCNS(C)(=O)=O)CC2)c2ccccc21	2

# context switch: different molecule, same Population Hoechst High Intensity Objects (%)
Field: Population Hoechst High Intensity Objects (%) (Fibroblast). Entry: C[C@H](NC(=O)CNC(=O)c1cccc(Cl)c1)c1ccccc1 3
